Collected inhibition values appear next to each entry.
Measurement Protocol: inhibitors of the yeast RAM network, pilot screen, dse1pr::URA3 reporter, 5-FOA selection (AID 869);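 note: 0% = DMSO wells with no growth and 100% = 10 µM 1-NA-PP1 with full growth; RAM network block rescues cells from 5-FOA so hits raise OD615 growth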
Cond: S. cerevisiae dse1pr::URA3 5-FOA growth, OD615, 2 d; at 10 µM; stronger effect = higher value; strain carries analog-sensitive mutant Cbk1 kinase

>  <Compound>
Cn1c(-n2c(CCN3C(=O)c4ccccc4C3=O)nc3ccccc3c2=O)nc2ccccc21

>  <inhibition (%)>
0.65

$$$$
>  <Compound>
CC1(C)C(=O)OC(c2cc(Br)ccc2O)C(C)(C)C1=O (stereo unspecified)

>  <inhibition (%)>
-0.355

$$$$
>  <Compound>
O=C(CSc1nc(-c2ccco2)cc(C(F)(F)F)n1)NC1CCCC1

>  <inhibition (%)>
0.995

$$$$
>  <Compound>
CN(CCO)c1ncnc2nc[nH]c12

>  <inhibition (%)>
1.36

$$$$
>  <Compound>
Cc1cc2c(cc(C(=O)N3CCC(C(=O)NC4CCCC4)CC3)n2Cc2c(F)cccc2Cl)o1

>  <inhibition (%)>
0.72

$$$$
>  <Compound>
CCCN1C(=O)c2cc(C(=O)NCc3cccs3)ccc2C1O (stereo unspecified)

>  <inhibition (%)>
1.94

$$$$
>  <Compound>
CCCCS(=O)(=O)/C=C\C=C/S(=O)(=O)CCCC

>  <inhibition (%)>
-0.535

$$$$
>  <Compound>
COc1ccccc1CNC(=O)c1nnc(Cc2ccc(Cl)cc2)o1

>  <inhibition (%)>
1.81

$$$$
>  <Compound>
Cc1cc(N2CCOCC2)nc(SCC(=O)c2ccccc2)n1

>  <inhibition (%)>
2.53

$$$$
>  <Compound>
CCOC(=O)C1CCN(C(=O)CS(=O)Cc2nc(-c3ccc(C)cc3)oc2C)CC1 (stereo unspecified)

>  <inhibition (%)>
0.32

$$$$
>  <Compound>
CCC(Sc1nc(=O)cc(N)n1CCc1ccccc1)C(=O)Nc1cc(C)on1 (stereo unspecified)

>  <inhibition (%)>
1.33

$$$$
>  <Compound>
COc1ccccc1Nc1nc(N)nc(CN2CCOCC2)n1

>  <inhibition (%)>
0.845

$$$$
>  <Compound>
O=C(O)Cc1ccc(NC(=O)C2CC=CCC2C(=O)O)cc1 (stereo unspecified)

>  <inhibition (%)>
3.26

$$$$
>  <Compound>
Cc1cc(N2CCC(N(C)C3CCCC3)CC2)nc2cc(O)ccc12

>  <inhibition (%)>
2.4

$$$$
>  <Compound>
O=C(O)CCCC(=O)N1CCc2cc(S(=O)(=O)N3CCc4ccccc43)ccc21

>  <inhibition (%)>
1.98

$$$$
>  <Compound>
CCC(C)Nc1nc2c(c(=O)n(C)c(=O)n2C)n1Cc1ccc(Cl)cc1 (stereo unspecified)

>  <inhibition (%)>
-0.035

$$$$
